Experimental Details: chemical genetic growth profiling, strain panel (AID 1159580);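 further: tested at 20 µM; growth read once vehicle control cultures reached saturation at 30 °C; 1 = growth at the plate median or of vehicle wells; lower values mean less growth of the strain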
Conditions: S. cerevisiae deletion strains, growth OD, locus YNL209W, strain ssb2
The campaign covered roughly 5,500 compounds. About 2,000 (36%) were called active. Inconclusive results (about 18%) are left out. No stated cut-off is given here; in the data, active means normalized growth mostly below about 0.91 (no sharp cut-off); inconclusive means no clear call, values can overlap the other calls; inactive means mostly above about 0.92. The list shows a part of the results.
Outcome codes: TRUE (active), FALSE (inactive)

1. CNCC[C@@H](Oc1ccccc1)c1ccccc1
FALSE
2. CC(=O)Oc1cccc2c1C(=O)c1c(OC(C)=O)cc(C(=O)O)cc1C2=O
FALSE
3. O=C(O)c1cc(=O)c2c(Cl)cc(Cl)cc2[nH]1
FALSE
4. CCCCc1nc(Cl)c(CO)n1Cc1ccc(-c2ccccc2-c2nn[nH]n2)cc1
FALSE
5. CN1CCN(CCC=C2c3ccccc3Sc3ccc(S(=O)(=O)N(C)C)cc32)CC1
FALSE
6. OCCN1CCN(CCCN2c3ccccc3Sc3ccc(C(F)(F)F)cc32)CC1
FALSE
7. CN1CCN(CC(=O)N2c3ccccc3C(=O)Nc3cccnc32)CC1
FALSE
8. CN(C)C(=N)N=C(N)N
FALSE
9. COc1c2c(cc3c1OCO3)C13C=C[C@H](OC)CC1N(C2)CC3O (stereo partly drawn)
FALSE
10. CCCc1nc2c(C)cc(-c3nc4ccccc4n3C)cc2n1Cc1ccc(-c2ccccc2C(=O)O)cc1
FALSE
11. C[C@]12CCC(=O)C=C1CCC1C2C(=O)C[C@@]2(C)C1CC[C@]2(O)C(=O)CO (stereo partly drawn)
FALSE
12. O=C1c2ccccc2C(=O)C1c1ccccc1
FALSE
13. C#CC1(O)CCC2C3CCC4=CC(=O)CCC4(C)C3CCC21C (stereo not drawn)
FALSE
14. COc1cc2c(cc1O)CCNC2C (stereo not drawn)
FALSE
15. COc1ccc(C2C(=O)c3ccccc3C2=O)cc1
FALSE
16. CC(=O)[O][Hg][c]1ccccc1
TRUE
17. CC(=O)[C@@]1(O)CCC2C3CCC4=CC(=O)CC[C@]4(C)C3CC[C@@]21C (stereo partly drawn)
FALSE
18. CN1CCN(CCCN2c3ccccc3Sc3ccc(C(F)(F)F)cc32)CC1
TRUE
19. COc1cc2c(cc1OC)[C@@]13CCN4CC5=CCOC6CC(=O)N2C1[C@H]6[C@H]5C[C@H]43 (stereo partly drawn)
FALSE
20. CC(=O)OCC1=C(C(=O)O)N2C(=O)[C@@H](NC(=O)CCCC(N)C(=O)O)C2SC1 (stereo partly drawn)
FALSE
21. O=C(O)c1cc(=O)c2cccc(O)c2[nH]1
FALSE
22. COc1ccc2c(c1)[C@]13CCCC[C@H]1[C@H](C2)N(C)CC3
FALSE
23. CC(NCCC(c1ccccc1)c1ccccc1)c1ccccc1 (stereo not drawn)
TRUE

* * *

Experimental Details: chemical genetic growth profiling, strain panel (AID 1159580)
Conditions: S. cerevisiae deletion strains, growth OD, locus YDR297W, strain sur2, active compounds read low
The campaign covered roughly 5,500 compounds. About 2,000 (36%) were called active. Inconclusive results (about 18%) are left out. This is one part of the list. Where a SMILES comes first, the peptide text is derived from it. Bridges are numbered along the chain shown (N, C = ends). [ ]: non-standard residue; d: D form. The star is where a group is joined. Octanoyl(6-Me) = CCC(C)CCCCC(=O)*; Dab = NCC[CH](N)C(=O)O
Observable: normalized growth

1. CC1(C)C=Cc2cc3ccc(=O)oc3cc2O1
0.965 (inactive)
2. Cc1cc(C(C)(C)C)c(O)c(C)c1CC1=NCCN1
1 (inactive)
3. COc1cnc(NS(=O)(=O)c2ccc(N)cc2)nc1
1.01 (inactive)
4. CN(C)C(=N)N=C(N)N
0.998 (inactive)
5. NC(N)=NC(N)=Nc1ccccc1
0.999 (inactive)
6. Cc1cc(C(C)(C)C)cc(C)c1CC1=NCCN1
1 (inactive)
7. CN1CCN(CCCN2c3ccccc3Sc3ccc(C(F)(F)F)cc32)CC1
0.0695 (active)
8. NC1C[C@H]1c1ccccc1 (stereo partly drawn)
1 (inactive)
9. COc1cc(O)cc(OC)c1OC
0.986 (inactive)
10. CO[C@H]1C[C@H](O[C@H]2[C@H](C)[C@@H](OC3O[C@H](C)C[C@H](N(C)C)[C@H]3OC(C)=O)[C@@H](C)C[C@]3(CO3)C(=O)[C@H](C)[C@@H](OC(C)=O)[C@@H](C)[C@@H](C)OC(=O)[C@@H]2C)O[C@@H](C)[C@@H]1OC(C)=O (stereo partly drawn)
0.991 (inactive)
11. CCN(CC)CCNC(=O)c1cc(Cl)c(N)cc1OC
0.984 (inactive)
12. CCc1cccc2c3c([nH]c12)C(CC)(CC(=O)O)OCC3 (stereo not drawn)
0.985 (inactive)
13. NC(=O)N1c2ccccc2C=Cc2ccccc21
1.02 (inactive)
14. OCCN1CCN(CCCN2c3ccccc3Sc3ccc(C(F)(F)F)cc32)CC1
0.981 (inactive)
15. CN1CCN(CCC=C2c3ccccc3Sc3ccc(S(=O)(=O)N(C)C)cc32)CC1
0.975 (inactive)
16. CNS(=O)(=O)c1ccc(NC(=O)c2ccccc2C(=O)O)cc1
0.995 (inactive)
17. O=C(CCBr)N1CCN(C(=O)CCBr)CC1
1.02 (inactive)
18. CCC(C)CCCCC(=O)NC(CCN)C(=O)NC(C(=O)NC(CCN)C(=O)NC1CCNC(=O)C(C(C)O)NC(=O)C(CCN)NC(=O)C(CCN)NC(=O)C(CC(C)C)NC(=O)C(Cc2ccccc2)NC(=O)C(CCN)NC1=O)C(C)O (stereo not drawn) ({Octanoyl(6-Me)}-[Dab]T[Dab][Dab][Dab]FL[Dab][Dab]T; lactam 4-C; configuration not given here)
0.994 (inactive)

* * *

Examples of compounds with documented normalized growth follow.
Experimental Details: chemical genetic growth profiling, strain panel (AID 1159580);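 further: tested at 20 µM; growth read once vehicle control cultures reached saturation at 30 °C; 1 = growth at the plate median or of vehicle wells; lower values mean less growth of the strain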
Conditions: S. cerevisiae deletion strains, growth OD, locus YPR167C, strain met16, active compounds read low
Screen size: about 5,500 compounds; about 2,000 (36%) were called active. Roughly 18% stayed inconclusive and do not appear here. The list shows a part of the results.
Observable: normalized growth

1. CN[C@@H]1[C@@H](O[C@H]2O[C@H](CO)[C@@H](N)[C@H](O)[C@H]2O)O[C@H]2C[C@@H](N)[C@H](O[C@H]3[C@H](O)[C@@H](O)[C@H](N)C[C@@H]3N)O[C@@H]2[C@@H]1O
0.991 (inactive)
2. Cc1c(NC(=O)c2cccnc2)c(=O)n(-c2ccccc2)n1C
0.991 (inactive)
3. NC[C@H]1O[C@H](O[C@H]2C(O[C@@H]3O[C@H](CO)[C@@H](O)[C@H]3O)[C@@H](O)[C@H](N)C[C@@H]2N)[C@H](N)[C@@H](O)[C@@H]1O (stereo partly drawn)
0.991 (inactive)

* * *

Experimental Details: chemical genetic growth profiling, strain panel (AID 1159580);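 further: tested at 20 µM; growth read once vehicle control cultures reached saturation at 30 °C; 1 = growth at the plate median or of vehicle wells; lower values mean less growth of the strain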
Conditions: S. cerevisiae deletion strains, growth OD, locus YMR001C, strain CDC5, active compounds read low
The campaign covered roughly 5,500 compounds. About 2,000 (36%) were called active. Roughly 18% stayed inconclusive and do not appear here. This is one part of the list.
Label yes (1) when normalized growth < 0.9; otherwise no (0).

1) O=c1c(-c2ccccc2)c(O)c2cccc3c4c(n1c23)CCCC4
no (0)
2) CS/C(Nc1cccc(C(F)(F)F)c1)=C(/C#N)S(=O)(=O)c1ccc(Cl)cc1
no (0)
3) CN1c2ccccc2C(C)(C)C12C=Cc1cc(O)ccc1O2 (stereo unspecified)
no (0)
4) C/C(=N/NC(=O)c1ccc(C(C)(C)C)cc1)c1ccccc1O
no (0)
5) Cc1ccc2nc(-c3ccc([N+](=O)[O-])o3)oc(=O)c2c1
yes (1)
6) O=C(NNC(=S)Nc1ccc(Cl)cc1)c1ncc(C(F)(F)F)cc1Cl
no (0)
7) CC(C)(C)c1ccc(C(=O)NNC(=S)Nc2ccc(Cl)cc2)cc1
no (0)
8) Clc1ccc(N/N=C\c2sccc2Oc2ccccc2)cc1
no (0)
9) COc1ccc(C2CC(c3ccc(C)cc3C)=NN2C(C)=O)cc1 (stereo unspecified)
no (0)
10) CC(=O)c1ccccc1C(=O)c1ccc(C(C)(C)C)cc1
no (0)
11) N#C/C(=N/Nc1cccc(C(F)(F)F)c1)C(=O)c1csc(-c2cccnc2)n1
no (0)
12) CCOC(=O)c1cnc2c(c(C)nn2C)c1Sc1nnc(SC)s1
yes (1)
13) S=C(N/N=C\c1cccs1)NC1CC2CCC1C2 (stereo unspecified)
no (0)

* * *

Experimental Details: chemical genetic growth profiling, strain panel (AID 1159580);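 further: tested at 20 µM; growth read once vehicle control cultures reached saturation at 30 °C; 1 = growth at the plate median or of vehicle wells; lower values mean less growth of the strain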
Conditions: S. cerevisiae deletion strains, growth OD, locus YNR049C, strain mso1, active compounds read low
Screen size: about 5,500 compounds; about 2,000 (36%) were called active. Inconclusive results (about 18%) are left out. The list shows a part of the results. Where a SMILES comes first, the peptide text is derived from it. Bridges are numbered along the chain shown (N, C = ends). [ ]: non-standard residue; d: D form. The star is where a group is joined. Octanoyl(6-Me) = CCC(C)CCCCC(=O)*; Dab = NCC[CH](N)C(=O)O
Observable: normalized growth

1. CC(=O)OC[C@H]1O[C@@H](Oc2cc(OC(C)=O)c3c(=O)cc(-c4ccc(OC(C)=O)cc4)oc3c2)[C@H](OC(C)=O)[C@@H](OC(C)=O)[C@@H]1OC(C)=O
0.989
2. C[C@]12CCC(=O)C=C1CCC1C2[C@@H](O)C[C@@]2(C)C1CC[C@]2(O)C(=O)COC(=O)CCC(=O)O (stereo not given in full)
1.02
3. CN1CCN(CCC=C2c3ccccc3Sc3ccc(S(=O)(=O)N(C)C)cc32)CC1
1.01
4. CCC1(CC)C(=O)C=CNC1=O
0.994
5. O=C(OC[C@H]1O[C@H](OC(=O)c2cc(O)c(O)c(OC(=O)c3cc(O)c(O)c(O)c3)c2)[C@H](OC(=O)c2cc(O)c(O)c(OC(=O)c3cc(O)c(O)c(O)c3)c2)[C@@H](OC(=O)c2cc(O)c(O)c(OC(=O)c3cc(O)c(O)c(O)c3)c2)[C@@H]1OC(=O)c1cc(O)c(O)c(OC(=O)c2cc(O)c(O)c(O)c2)c1)c1cc(O)c(O)c(OC(=O)c2cc(O)c(O)c(O)c2)c1
0.944
6. O=c1[nH]cnc2c1ncn2C1O[C@H](CO)[C@@H](O)[C@H]1O (stereo not given in full)
0.978
7. COc1ccc2c(c1)[C@]13CCCC[C@H]1[C@H](C2)N(C)CC3
0.976
8. COc1cc2c(cc1OC)[C@@H]1C(=O)c3ccc4c(c3O[C@@H]1CO2)CC(C(C)C)O4 (stereo not given in full)
0.997
9. OCCN1CCN(CCCN2c3ccccc3Sc3ccc(C(F)(F)F)cc32)CC1
0.984
10. C1CCC(C(CC2CCCCN2)C2CCCCC2)CC1 (stereo not given)
0.99
11. C[C@]12CCC(=O)C=C1CCC1C2C(=O)C[C@@]2(C)C1CC[C@]2(O)C(=O)CO (stereo not given in full)
1.01
12. C#C[C@]1(O)CCC2C3CCC4=Cc5oncc5C[C@]4(C)C3CC[C@@]21C (stereo not given in full)
0.961
13. CN[C@@H]1[C@@H](O[C@H]2O[C@H](CO)[C@@H](N)[C@H](O)[C@H]2O)O[C@H]2C[C@@H](N)[C@H](O[C@H]3[C@H](O)[C@@H](O)[C@H](N)C[C@@H]3N)O[C@@H]2[C@@H]1O
0.999
14. COc1cc(O)cc(OC)c1OC
0.986
15. C#CC1(O)CCC2C3CCC4=CC(=O)CCC4(C)C3CCC21C (stereo not given)
0.965
16. CC(=O)OCC1=C(C(=O)O)N2C(=O)[C@@H](NC(=O)CCCC(N)C(=O)O)C2SC1 (stereo not given in full)
0.996
17. O=C(O)c1cc(=O)c2c(Cl)cc(Cl)cc2[nH]1
1.01
18. CC(=O)O[C@H]1CC[C@]2(C)C3CC[C@@]4(C)C(CC5O[C@@]6(CCC(C)CO6)[C@@H](C)C54)C3CC[C@@H]2C1 (stereo not given in full)
0.995
19. C[C@]12CCC3C(CC[C@H]4C[C@H](OS(=O)(=O)O)CC[C@]34C)C1CCC2=O (stereo not given in full)
1.05
20. Cc1c(NC(=O)c2cccnc2)c(=O)n(-c2ccccc2)n1C
0.997
21. CNCC[C@@H](Oc1ccccc1)c1ccccc1
0.969
22. COc1ccc(C2C(=O)c3ccccc3C2=O)cc1
0.982
23. CC(NCCC(c1ccccc1)c1ccccc1)c1ccccc1 (stereo not given)
1
24. CCC(C)CCCCC(=O)NC(CCN)C(=O)NC(C(=O)NC(CCN)C(=O)NC1CCNC(=O)C(C(C)O)NC(=O)C(CCN)NC(=O)C(CCN)NC(=O)C(CC(C)C)NC(=O)C(Cc2ccccc2)NC(=O)C(CCN)NC1=O)C(C)O (stereo not given) ({Octanoyl(6-Me)}-[Dab]T[Dab][Dab][Dab]FL[Dab][Dab]T; lactam 4-C; configuration not given here)
0.997
25. CCCCCCCCCCCCCCCCCCOCC(O)CO (stereo not given)
0.995
26. CC[C@H]1CN2CCc3cc(OC)c(OC)cc3C2C[C@@H]1CC1NCCc2cc(OC)c(OC)cc21 (stereo not given in full)
0.967
27. COc1cc2c(cc1OC)[C@@]13CCN4CC5=CCOC6CC(=O)N2C1[C@H]6[C@H]5C[C@H]43 (stereo not given in full)
0.989
28. CN1CCN(CCCN2c3ccccc3Sc3ccc(C(F)(F)F)cc32)CC1
0.0676
29. CC(=O)[O][Hg][c]1ccccc1
0.0595
30. C=C(C)[C@H]1Cc2c(ccc3c2O[C@@H]2COc4cc(OC)c(OC)cc4[C@@H]2C3=O)O1
1.01
31. CC(=O)CC1CCCCN1 (stereo not given)
1.02
32. CCc1cccc2c3c([nH]c12)C(CC)(CC(=O)O)OCC3 (stereo not given)
0.963
33. NC(=O)NO
1.01
34. CC(=O)O[C@H]1CC[C@]2(C)C3CC(=O)[C@]4(C)C(C(C)=O)=CCC4C3CC[C@H]2C1 (stereo not given in full)
0.99
35. CC(=O)O[C@@H]1CC[C@]2(C)C3CC[C@]4(C)C(=O)CCC4C3CC[C@H]2C1 (stereo not given in full)
1.01
